Test system: adhesion of U937 cells to human umbilical venous endothelial cells (HUVEC)
Assay: Inhibitory effect on cell adhesion (fluorescence-labeled U937 adhered to IL-1β- or TNFα-stimulated HUVEC)
Format: cell-based
Details: compound at 1 μM, U937 adhesion to HUVEC stimulated by TNFα, read-out: Percent inhibition (%) Stimulation by TNFα
reported-endpoint: inhibition at 1 µM (%)

compound | value
COc1cc(-c2cccc(CN3CCN(Cc4ccnc(-c5cc(OC)c(OC)c(OC)c5)c4)CC3)c2)cc(OC)c1OC [Example 18, difumarate] | 54
COc1cc(-c2cc(CN3CCN(Cc4ccc5c(OC)c(OC)c(OC)cc5c4)CC3)ccn2)cc(OC)c1OC [Example 38, dimaleate] | 76
COc1cc(-c2cccc(CN3CCCN(Cc4ccnc(-c5cc(OC)c(OC)c(OC)c5)c4)CC3)c2)cc(OC)c1OC [Example 19, difumarate] | 58
COc1cc(/C=C/CCCN2CCCN(Cc3ccnc(-c4cc(OC)c(OC)c(OC)c4)c3)CC2)cc(OC)c1OC [Example 41, difumarate] | 67
COc1cc(/C=C/CCCN2CCN(Cc3ccnc(-c4cc(OC)c(OC)c(OC)c4)c3)CC2)cc(OC)c1OC | 55
COc1cc(-c2cc(CN3CCN(CCC/C=C/c4ccc(F)cc4)CC3)ccn2)cc(OC)c1OC [Example 42, difumarate] | 56
COc1cc(-c2cccc(C(=O)N3CCN(Cc4ccnc(-c5cc(OC)c(OC)c(OC)c5)c4)CC3)c2)cc(OC)c1OC | 52
COc1ccc(-c2cc(CN3CCN(Cc4ccnc(-c5cc(OC)c(OC)c(OC)c5)c4)CC3)ccn2)cc1 [Example 25, difumarate] | 70
COc1cc(-c2cc(CN3CCN(CCc4ccc5c(OC)c(OC)c(OC)cc5c4)CC3)ccn2)cc(OC)c1OC [Example 37, dimaleate] | 56
COc1ccc(-c2cc(CN3CCN(Cc4ccnc(-c5cc(OC)c(OC)c(OC)c5)c4)CC3)ccn2)cc1OC [Example 26, difumarate] | 69
COc1cc(-c2cc(CN3CCN(Cc4ccnc(-c5ccccc5)c4)CC3)ccn2)cc(OC)c1OC [Example 21, difumarate] | 60
COc1cc(C(=O)OCCCN2CCCN(CCCOC(=O)c3cc(OC)c(OC)c(OC)c3)CC2)cc(OC)c1OC [Dilazep, dilazep, reference compound] | 12
